# subjectOfTest: CD28 (Homo sapiens, UniProt P10747)
# experimentalProtocol: Jurkat/IL2 + CHO/OKT3 +/- PD-L1 reporter assay: PD-L1-dependent CD28 costimulation
# Assay type: cell-based
# Set-up: host or cells: Jurkat cells expressing an IL-2-luciferase reporter
# recordedConditions: Table E24; Jurkat/IL2 + CHO/OKT3/PD-L1; 5.0 nM
Consider the following molecules and their measured Relative Luciferase Units (RLU), CD80 Conc 5.0 nM readings.
attributeMeasured: Relative Luciferase Units (RLU), CD80 Conc 5.0 nM

{"molecule": "H18T/A26N/E35D/M47L/V68M/A71G (protein, UniProt P33681 35-288, looked up, variant H18T A26N E35D M47L V68M A71G, Fc fusion) T-lymphocyte activation …: VIHVTKEVKEVATLSCGTNVSVEELNQTRIYWQKDKKMVLTMMSGDLNIWPEYKNRTIFDITNNLSIMILGLRPSDEGTYECVVLKYEKDAFKREHLAEVTLSVKADFPTPSISDFEIPTSNIRRIICSTSGGFPEPHLSWLENGEELNAINTTVSQDPETELYAVSSKLDFNMTTNHSFMCLIKYGHLRVNQTFNWNTTKQEHFPDNLLPSWAITLISVNGIFVICCLTYCFAPRCRERRRNERLRRESVRPV", "quantityUnit": "RLU", "numericReadout": 1053}
{"molecule": "H18Y/E35D/M47V/V68M/A71G (protein, UniProt P33681 35-288, looked up, variant H18Y E35D M47V V68M A71G) T-lymphocyte activation …: VIHVTKEVKEVATLSCGYNVSVEELAQTRIYWQKDKKMVLTMMSGDVNIWPEYKNRTIFDITNNLSIMILGLRPSDEGTYECVVLKYEKDAFKREHLAEVTLSVKADFPTPSISDFEIPTSNIRRIICSTSGGFPEPHLSWLENGEELNAINTTVSQDPETELYAVSSKLDFNMTTNHSFMCLIKYGHLRVNQTFNWNTTKQEHFPDNLLPSWAITLISVNGIFVICCLTYCFAPRCRERRRNERLRRESVRPV", "quantityUnit": "RLU", "numericReadout": 963}
{"molecule": "H18F/A26N/E35D/M47V/V68M/A71G/D90K (protein, UniProt P33681 35-288, looked up, variant H18F A26N E35D M47V V68M A71G D90K) T-lymphocyte activation …: VIHVTKEVKEVATLSCGFNVSVEELNQTRIYWQKDKKMVLTMMSGDVNIWPEYKNRTIFDITNNLSIMILGLRPSDEGTYECVVLKYEKKAFKREHLAEVTLSVKADFPTPSISDFEIPTSNIRRIICSTSGGFPEPHLSWLENGEELNAINTTVSQDPETELYAVSSKLDFNMTTNHSFMCLIKYGHLRVNQTFNWNTTKQEHFPDNLLPSWAITLISVNGIFVICCLTYCFAPRCRERRRNERLRRESVRPV", "quantityUnit": "RLU", "numericReadout": 919}
{"molecule": "H18V/A26P/E35D/M47V/V68L/A71G (protein, UniProt P33681 35-288, looked up, variant H18V A26P E35D M47V V68L A71G) T-lymphocyte activation …: VIHVTKEVKEVATLSCGVNVSVEELPQTRIYWQKDKKMVLTMMSGDVNIWPEYKNRTIFDITNNLSILILGLRPSDEGTYECVVLKYEKDAFKREHLAEVTLSVKADFPTPSISDFEIPTSNIRRIICSTSGGFPEPHLSWLENGEELNAINTTVSQDPETELYAVSSKLDFNMTTNHSFMCLIKYGHLRVNQTFNWNTTKQEHFPDNLLPSWAITLISVNGIFVICCLTYCFAPRCRERRRNERLRRESVRPV", "quantityUnit": "RLU", "numericReadout": 881}
{"molecule": "H18V/A26P/E35D/M47L/V68M/A71G (protein, UniProt P33681 35-288, looked up, variant H18V A26P E35D M47L V68M A71G) T-lymphocyte activation …: VIHVTKEVKEVATLSCGVNVSVEELPQTRIYWQKDKKMVLTMMSGDLNIWPEYKNRTIFDITNNLSIMILGLRPSDEGTYECVVLKYEKDAFKREHLAEVTLSVKADFPTPSISDFEIPTSNIRRIICSTSGGFPEPHLSWLENGEELNAINTTVSQDPETELYAVSSKLDFNMTTNHSFMCLIKYGHLRVNQTFNWNTTKQEHFPDNLLPSWAITLISVNGIFVICCLTYCFAPRCRERRRNERLRRESVRPV", "quantityUnit": "RLU", "numericReadout": 808}
